Source of measurements: ChEMBL document CHEMBL1201862

Tested on: CCRF-CEM
testName: NCI tumour cell line growth inhibition, 48 h
Calls of active or inactive are those of the source. Cut-off read from the data, not from the text of the source: active = GI50 up to about 1.1 µM and inactive = higher.
Permitted responses: active, inactive

Would you please look over these solved cases?
C#CCNC(Cc1ccccc1)C(=O)O (stereo unspecified) : inactive
CCOC(=O)c1csc(NC(=O)CCN(CC)CC)n1 : inactive
CO[C@]12C[C@H](CNC(=O)c3ccc[nH]3)O[C@H]1NC(=O)N2 : inactive
O=C(Nc1ccccc1C(=O)Nc1nccs1)c1ccccc1 : inactive
CNC(=O)N(CCCC(NC(C)=O)C(=O)NCc1ccccc1)Cc1ccccc1 (stereo unspecified) : inactive
C=C1C(C(O)C[C@H](C)C2O[C@@]3(CCCCO3)CCC2C)O[C@@H]2CCC3(CCC(/C=C/[C@@H](C)C4CC(C)=CC5(O4)O[C@H](C[C@](C)(O)C(=O)O)CCC5O)O3)OC2[C@@H]1O (stereo partly specified) : active
N#CC(NNC(=O)c1ccccc1O)c1cccc(O)c1 (stereo unspecified) : inactive
COC(=O)C1(C)C=CC(=O)C2(C)C1C(O)C1OC3CC(c4ccoc4)C(C)=C3C1(C)C2CC(=O)O (stereo unspecified) : inactive
N/C(=C\c1ccc(/C=C(\NC(=O)c2ccccc2)c2nc3c([nH]2)C(=O)c2ccccc2C3=O)cc1)c1nc2c([nH]1)C(=O)c1ccccc1C2=O : inactive
COc1cc(/C=N/c2ccccn2)cc(OC)c1OC : inactive

For `COc1ccc([C@H]2[C@H]3COC(=O)[C@H]3C(C#N)=C3Sc4ccccc4N32)cc1` , what call appears in the results of this test?
inactive

Hello, I am checking results. What call was entered for O=C(c1ccccc1)C(c1ccccc1)C1(O)C(=O)Nc2c(Cl)cc(Cl)cc21 (stereo unspecified) ?
inactive

Assay result, entry `COC(=O)c1c(O)ccc2c1c1c(n2Cc2ccc(Cl)cc2Cl)C(=O)c2ccccc2C1=O` — outcome?
inactive

// param item: CC(NC(=O)OC(C)(C)C)C(=O)NC(Cc1ccccc1)C(=O)NCC(=O)ON=C1CCCC1 (stereo unspecified) ; yields the recorded call
inactive

Recorded test call requested for `O=c1/c(=C/c2ccco2)sc2nc3ccccc3n12`
inactive

Answer briefly: the call reported for `CN(Cc1cc(Cl)c(Cl)cc1NC(=O)CN)[C@H]1CCCC[C@@H]1N1CCCC1` in this assay.
inactive

* * *

Test system: U-251
testName: NCI tumour cell line growth inhibition, 48 h
Activity calls are given as the source filed them. No stated cut-off is given here; in the data, active = GI50 up to about 1.1 µM and inactive = higher.
Pick from 1 (active), -1 (inactive) when you respond.

Worked set:
O=C(c1ccccc1)C(c1ccccc1)C1(O)C(=O)Nc2c(Cl)cc(Cl)cc21 (stereo not drawn) : -1
CC1(C)C(O)OC(O)C1(C)C (stereo not drawn) : -1
COc1cc(/C=N/c2ccccn2)cc(OC)c1OC : -1
O=c1c(Cc2c(O)oc3cc(O)ccc3c2=O)c(O)oc2cc(O)ccc12 : -1
N=C(N)C1=C(O)NC(=O)N(C2CCCCC2)C1 : -1

Hello, I am checking results. What call was entered for `c1cc(-c2cn3ccsc3n2)ccn1` ?
-1

Which result was noted for this compound in the test: `COc1ccc(C(c2ccc(C(C)C)cc(OC)c2=O)c2ccc(C(C)C)cc(OC)c2=O)cc1`
-1

Which outcome did this test record for the compound `CC(C)(C)N1C(=O)[N-]/[N+](=C(/C(c2ccccc2)=[N+]2/[N-]C(=O)N(C(C)(C)C)C2=O)c2ccccc2)C1=O` ?
-1

Tell me the recorded outcome of this test for `Cc1nc2c(=O)n(-c3ccccc3)c3ccccc3c2o1` .
-1

Short answer needed: outcome of this test for `CC1(C)O[C@@H]2[C@@H](COC(=O)c3ccccc3)C[C@@H](C#N)[C@@H]2O1` ?
-1

// return assay outcome for `Cc1ccc2nc3c(C(=O)NCCN(C)C)cccc3nc2c1`
-1

Could you kindly confirm the outcome this assay logged for COC(=O)C(C(=O)C(=O)Nc1ccccc1C)c1nc2ccc([N+](=O)[O-])cc2nc1O (stereo not drawn) ?
-1

* * *

Test system: 786-0
testName: NCI tumour cell line growth inhibition, 48 h
Calls of active or inactive are those of the source. No stated cut-off is given here; in the data, active = GI50 up to about 1.1 µM and inactive = higher.
Please state which outcome applies, choosing from 1 (active), 0 (inactive)

Worked set:
[N-]=[N+]=NC1C(O)C(CO)OC1n1cnc2c(N)ncnc21 (configuration not stated) : 0
O=C(CNc1cccc([N+](=O)[O-])c1)Nn1c(-c2ccccc2)nc2ccccc2c1=O : 1
CCc1cc2c(c3c1CCCC3=O)CC1(Cc3ccc(C(=O)OC)cc3C1)C2 (configuration not stated) : 0
O=C(/C=C/c1cc2ccccc2o1)N1CCN(c2ccccn2)CC1 : 0

State the result this test recorded for `CC1=NN(c2nc(N)nc(CF)n2)C(C)(C)C1` .
0

Hey, what did the test say about COC(=O)C1CC2(CCC1=O)Cc1ccccc1C2=O (configuration not stated) ?
0

Can you look up the reported call for `CS(=O)(=O)ON1C(=O)c2ccc(N)cc2C1=O` for me?
0

Assay outcome for COc1cc([C@@H]2c3cc4c(cc3[C@@H](NC(=O)c3ccccc3)C3COC(=O)[C@@H]32)OCO4)cc(OC)c1O (some centres not stated) : what was it?
0

Call for entry `CC(=N/NC(=S)N(C)C)/C(=N\NC(=S)N(C)C)c1ccccc1` :
0

Short answer needed: outcome of this test for CC(NS(=O)(=O)c1ccc(Cl)cc1)C(=O)O (configuration not stated) ?
0

Assay outcome for `Cc1nc2c(=O)n(-c3ccccc3)c3ccccc3c2o1` : what was it?
0

Lab log entry: `COc1ccc(/N=C2\C(=O)C3=C(OC(C)(C)CC3)c3ccccc32)cc1` — outcome as called in the assay?
1

Which outcome did this test record for the molecule `c1ccc([S+](c2ccccc2)c2ccc(Sc3ccc([S+](c4ccccc4)c4ccccc4)cc3)cc2)cc1` ?
0

Please share the test call associated with `O=[N+]([O-])c1cc(Cl)ccc1S(=O)(=O)c1cc(Cl)cc2c1NCCC2` .
0

I would be grateful if you could indicate the recorded call for `Cc1cc(=O)oc2c1cc(OCC(=O)OCCN1CCCCC1)c1occ(C)c12` .
0

Could you kindly confirm the outcome this assay logged for CC(=O)N1CCOC12N=NC(C)(C)O2 (configuration not stated) ?
0

Recorded test outcome, item CC(NC(=O)CNP(=O)(c1ccccc1)c1ccccc1)C(=O)NC(Cc1ccccc1)C(=O)OCc1ccccc1 (configuration not stated)
0

Give the logged outcome of this assay for the following molecule: `N#CCCC1(CCC#N)CCCCCCCCC(CCC#N)(CCC#N)C(=O)C1=O`
0

Outcome logged for `CN(C)CCCNCc1cccc2ccccc12` in this assay:
0

# fetch the recorded call for `COC(=O)c1c(O)ccc2c1c1c(n2Cc2ccc(Cl)cc2Cl)C(=O)c2ccccc2C1=O` here
0

Which outcome did this test record for the molecule `O=C(Cc1ccccc1)NCCCN(CCCCN(CCCNC(=O)Cc1ccccc1)C(=O)OCc1ccccc1)C(=O)OCc1ccccc1` ?
0

* * *

Tested on: SK-MEL-28
testName: NCI tumour cell line growth inhibition, 48 h
Active and inactive are the calls of the source. No stated cut-off is given here; in the data, active = GI50 up to about 1.1 µM and inactive = higher.
So I've got a bunch of compounds here, and I need their GI50 values.

Some solved entries appear below for comparison.
OC1CC2CCC(C1)N2CCCN1c2ccccc2Sc2ccc(Cl)cc21 (stereo not drawn) : 1.81 µM (inactive)
O=C(CCCN1CCC2(CC1)CC(=O)N(N1CCCCCC1)C2=O)c1ccccc1 : > 100 µM (inactive)
Cc1ccc(C)n2c1nc1cc3ccccc3cc12 : 45 µM (inactive)
CC(C)C(C)C(C)(C)P(C)(C)=O (stereo not drawn) : > 100 µM (inactive)
NNC(=O)CC(=O)Nc1ccc(Cl)cc1 : > 100 µM (inactive)
N#CC(c1cc(Cl)ncn1)c1nc2ccccc2s1 (stereo not drawn) : 19.3 µM (inactive)
COc1cc(Br)c(OC)c2c(OC)cc(C)cc12 : > 100 µM (inactive)
COC(=O)Nc1nc2ccccc2[nH]1 : 16.2 µM (inactive)

The following compounds each have a reported value; give each one's GI50.
1. COCN1C(=O)C2CC(/C=C/C(N)=O)=CN2C(=O)c2ccccc21 (stereo not drawn)
2. CN(Cc1cc(Cl)c(Cl)cc1NC(=O)CN)[C@H]1CCCC[C@@H]1N1CCCC1
3. CC1(C)C(O)OC(O)C1(C)C (stereo not drawn)
4. CCCCc1ccc(N2C(=O)c3cccnc3S2(=O)=O)cc1
5. CC(=O)NC(CCCNC(=O)OCc1ccccc1)C(=O)NCc1ccccc1 (stereo not drawn)

1. > 100 µM (inactive)
2. 19.8 µM (inactive)
3. 43.4 µM (inactive)
4. > 100 µM (inactive)
5. > 100 µM (inactive)

Please look at the items below and tell me GI50 for each one, in order.
1. COc1cccc(C2c3cc4c(cc3OC(NNc3ccccc3)C2C)OCO4)c1OC (stereo not drawn)
2. Cc1c(C)c2c(c(N)c1C#N)C(=O)N(O)C2=O
3. Cc1ccc2cccc(-c3cccc4ccccc34)c2n1
4. O=S(=O)(Nc1nccs1)c1ccc(Nc2nc(-c3cccs3)nc3ccc(I)cc23)cc1
5. Nc1nc(NCCCO)cc(=O)[nH]1
6. COC(C/C(=C/CO[Si](C(C)C)(C(C)C)C(C)C)C(=O)N(COCC[Si](C)(C)C)c1ccccc1I)OC
7. N/C(=C\c1ccc(/C=C(\NC(=O)c2ccccc2)c2nc3c([nH]2)C(=O)c2ccccc2C3=O)cc1)c1nc2c([nH]1)C(=O)c1ccccc1C2=O
8. COC(=O)C1(C)C=CC(=O)C2(C)C1C(O)C1OC3CC(c4ccoc4)C(C)=C3C1(C)C2CC(=O)O (stereo not drawn)

1. 24.2 µM (inactive)
2. > 100 µM (inactive)
3. 26.6 µM (inactive)
4. 21.4 µM (inactive)
5. > 100 µM (inactive)
6. 14 µM (inactive)
7. 16.8 µM (inactive)
8. > 100 µM (inactive)

Please give GI50, item by item, for the list that follows.
1. CC(=O)OC[C@@H](COC(=O)/C=C/c1ccc(O)cc1)OC1OC(CO)C(O)C(O)C1O (stereo partly drawn)
2. O=C(N(O)c1ccccc1Cl)C(O)(c1ccccc1)c1ccccc1

> 100 µM (inactive)
93.3 µM (inactive)
